# system.tested: T1, His-tagged human LILRB2 polypeptide (human, UniProt Q8N423 22-460)
# T1 construct: SPR analyte; also called His-tagged human LILBR2 polypeptide; not shown: His tag
# protocol.description: SPR, antibody on CM5 chip, His-LILRB2 analyte, 1:1 model
measured.parameter: koff (s⁻¹)
Report the figure in s⁻¹ without appending any unit label.

Entry Antibody 7G4 (antibody, V domains shown, Mouse hybridoma mAb purified from ascites) VH: QVQLKQSGPGLVQPSQSLSITCTVSGFSLATYGVHWVRQSPGKGLEWLGVMWRDGSTDYNAVFMSRLSITKDDSKSQVFFKMNSLQADDTAIYYCAKNPYLYGSSHYYAMDYWGQGTSVTVSS VL: DIVMTQSPSSLSVSAGEKVTMSCKSSQSLLNSENQKNYLAWYQQKPGQPPKLLIYGASTRESGVPDRFTGSGSGTDFTLTISSVQAEDLAVYYCQNDHIYPFTFGSGTKLEIK : reported koff = ?
0.000677

Numbers sourced from patent US20240109962A1.
